Entry source: the RNAGym collection of RNA variant scans (doi:10.1093/nar/gkz1192)

B1: CPEB3 Ribozyme (parent)
chain: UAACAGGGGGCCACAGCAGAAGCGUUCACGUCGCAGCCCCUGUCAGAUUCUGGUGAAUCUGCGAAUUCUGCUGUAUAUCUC

variants of: B1; assay: self-cleavage, relative activity (ratio to wild type); higher = more cleavage; in vitro, sequencing
recorded.metric: self-cleavage
# answer = number (no unit)

Take a look at these entries with their results.
A21C C23G: 0.16
U26A U43C: 0.29
A15G C29A: 0.16

# evaluate next
Query: self-cleavage; subject: A15U C40G
0.18
